target: TBK1 (Homo sapiens); experiment: TBK biochemical assay; details: 10 point 1:4 dose response, 30 uM top concentration, 90 min at 25° C., LabChip EZ Reader II; read-out: TBK1_IC50
Measurement Name: IC50

Here is how some compounds turned out for IC50.
INSERT INTO measurements (compound, observed_result) VALUES
  ('COc1nc(Nc2nccc(-c3ccc(OC4CCN(C(=O)[C@@H](C)O)C4)c(C#N)c3)n2)ccc1N1CCN(C2COC2)CC1 (stereo partly drawn)', '0.1 to 1 µM'),
  ('COc1nc(Nc2ncc(F)c(-c3ccc(O[C@H]4CCN(C(=O)[C@H](C)O)C[C@H]4F)c(C#N)c3)n2)ccc1N1CCN(C2COC2)CC1', '< 0.1 µM');

Okay, now this compound:
Param item = COc1nc(Nc2nccc(-c3ccc(OC4CCN(C(=O)[C@@H](O)CO)CC4(F)F)c(C#N)c3)n2)ccc1N1CCN(C2COC2)C[C@H]1C (stereo partly drawn) ; retrieve measured IC50. < 0.1 µM

====

target: TBK1 (Homo sapiens, UniProt Q9UHD2); assay: TBK biochemical assay; settings: 10 point 1:4 dose response, 30 uM top concentration, 90 min at 25° C., LabChip EZ Reader II; read-out: TBK1_IC50
Sequence (Q9UHD2 whole entry, species assumed): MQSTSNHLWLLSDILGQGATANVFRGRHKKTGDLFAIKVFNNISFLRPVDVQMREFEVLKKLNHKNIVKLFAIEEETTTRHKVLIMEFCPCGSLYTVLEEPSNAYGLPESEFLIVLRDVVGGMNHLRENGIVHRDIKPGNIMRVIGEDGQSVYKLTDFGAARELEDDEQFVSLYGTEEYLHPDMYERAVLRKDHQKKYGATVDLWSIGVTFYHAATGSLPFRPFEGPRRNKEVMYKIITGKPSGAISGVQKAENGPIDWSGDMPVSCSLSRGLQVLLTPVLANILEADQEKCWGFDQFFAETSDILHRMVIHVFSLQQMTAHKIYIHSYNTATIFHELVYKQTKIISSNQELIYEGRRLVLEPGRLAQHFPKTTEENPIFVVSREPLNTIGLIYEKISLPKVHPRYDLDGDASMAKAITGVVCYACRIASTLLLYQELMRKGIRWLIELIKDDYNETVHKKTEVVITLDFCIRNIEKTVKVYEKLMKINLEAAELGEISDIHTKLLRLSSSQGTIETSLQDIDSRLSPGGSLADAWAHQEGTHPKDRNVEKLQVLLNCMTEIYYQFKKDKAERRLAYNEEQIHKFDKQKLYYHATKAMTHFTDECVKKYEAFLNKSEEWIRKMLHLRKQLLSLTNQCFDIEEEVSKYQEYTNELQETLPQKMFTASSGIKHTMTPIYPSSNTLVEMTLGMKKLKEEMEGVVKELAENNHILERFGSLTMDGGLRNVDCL
pIC50: −log10 of the molar value.
Measurement Name: pIC50

INSERT INTO results (compound, assay_system, measurement_name, observed_result) VALUES
  ('COc1nc(Nc2nccc(-c3ccc(OC4CCNCC4(F)F)c(C#N)c3)n2)ccc1N1CCN(C)C[C@H]1C (stereo partly shown)', 'TBK1 (Homo sapiens, UniProt Q9UHD2)', 'pIC50', '> 7.00');

Param item = `C[C@@H](O)C(=O)N1CC(Oc2ccc(-c3ccnc(Nc4ccc(N5CCN(C6COC6)CC5)cc4)n3)cc2C#N)C1` ; retrieve measured pIC50. 6.00 to 7.00

====

Biological target: IKKε (Homo sapiens)
Sequence (Q14164 whole entry, species assumed): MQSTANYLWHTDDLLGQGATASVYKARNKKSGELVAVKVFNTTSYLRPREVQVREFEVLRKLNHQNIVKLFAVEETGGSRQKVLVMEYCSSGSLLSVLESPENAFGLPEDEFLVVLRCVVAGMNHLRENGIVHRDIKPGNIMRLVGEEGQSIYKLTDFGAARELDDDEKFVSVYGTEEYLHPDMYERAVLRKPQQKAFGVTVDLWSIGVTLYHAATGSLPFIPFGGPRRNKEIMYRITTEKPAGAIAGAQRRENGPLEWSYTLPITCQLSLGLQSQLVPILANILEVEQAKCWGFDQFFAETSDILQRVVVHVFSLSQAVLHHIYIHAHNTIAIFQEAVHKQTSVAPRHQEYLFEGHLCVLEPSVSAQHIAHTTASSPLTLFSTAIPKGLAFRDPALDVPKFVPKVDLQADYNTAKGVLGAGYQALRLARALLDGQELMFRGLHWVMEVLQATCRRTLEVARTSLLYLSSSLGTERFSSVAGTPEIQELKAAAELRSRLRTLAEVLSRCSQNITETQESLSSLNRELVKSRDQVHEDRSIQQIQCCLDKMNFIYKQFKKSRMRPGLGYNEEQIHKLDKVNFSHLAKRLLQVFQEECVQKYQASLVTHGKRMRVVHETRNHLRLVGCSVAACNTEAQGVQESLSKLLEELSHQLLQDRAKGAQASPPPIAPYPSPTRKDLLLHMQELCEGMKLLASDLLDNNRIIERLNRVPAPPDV
Experiment: IKKε biochemical assay
Conditions: 10 point 1:4 dose response, 30 uM top concentration, 90 min at 25° C., LabChip EZ Reader II; read-out: IKKε_IC50
Description: Test compounds were transferred into Labcyte polypropylene 384 well plates (P055-25) and diluted to 3 mM using DMSO. […] 100 uM of a reference compound (1 uM final high concentration). Backfilling was performed if necessary so that all wells contain 1% DMSO final: […]
Measurement Name: IC50

INSERT INTO measurements (molecule, observed_result) VALUES
  ('COc1nc(Nc2nccc(-c3ccc(OC4CCN(C(=O)[C@H](C)O)C(C)C4)c(C#N)c3)n2)ccc1N1CCN(C2COC2)CC1 (some centres unmarked) [Example 266]', '< 100 nM');

Param item = COc1nc(Nc2nccc(-c3ccc(OC4CCN(C(=O)CO)CC4(F)F)c(C#N)c3)n2)ccc1N1CCN(C)CC1 (centres unmarked) [Example 99] ; retrieve measured IC50. < 100 nM

Param item = COc1nc(Nc2nccc(-c3ccc(OC4CCOCC4)c(C#N)c3)n2)ccc1N1C[C@@H](C)N(C2COC2)[C@@H](C)C1 [Example 38] ; retrieve measured IC50. < 100 nM

Param item = COc1nc(Nc2nccc(-c3ccc(OC4CCN(C(=O)CO)CC4)c(C#N)c3)n2)ccc1N1CCN(C)CC1 [Example 90] ; retrieve measured IC50. < 100 nM
